# pKi annotations
target: T1, NLuc-VEGFR2 (full length human VEGFR2 with NanoLuc on its N-terminus) (human, UniProt P35968-1 20-1356); test: FRET or BRET; NanoBRET competition on living HEK293T NLuc-VEGFR2 cells; fixed VEGF165a-TMR (0.1-3 nM) added simultaneously with increasing unlabeled VEGF isoform, 60 min at 37 °C, HBSS/0.1% BSA; IC50 (molar) converted to pKi by Cheng-Prusoff; also linear regression of IC50 against [VEGF165a-TMR]; apparent; conditions: one partner purified
T1 construct: VEGFR2, human, subcloned from an Origene plasmid (NM_002253); called full length VEGFR2; Open reading frame: IL-6 signal peptide, NanoLuc, Gly-Ser-Ser-Gly(AIA) linker, VEGFR2 (vector pF-sNnK CMV/neo); also called NanoLuc VEGFR2; NanoLuc-tagged VEGFR2; not shown: NanoLuc, N-terminal, kept
T1 sequence (P35968 20-1356): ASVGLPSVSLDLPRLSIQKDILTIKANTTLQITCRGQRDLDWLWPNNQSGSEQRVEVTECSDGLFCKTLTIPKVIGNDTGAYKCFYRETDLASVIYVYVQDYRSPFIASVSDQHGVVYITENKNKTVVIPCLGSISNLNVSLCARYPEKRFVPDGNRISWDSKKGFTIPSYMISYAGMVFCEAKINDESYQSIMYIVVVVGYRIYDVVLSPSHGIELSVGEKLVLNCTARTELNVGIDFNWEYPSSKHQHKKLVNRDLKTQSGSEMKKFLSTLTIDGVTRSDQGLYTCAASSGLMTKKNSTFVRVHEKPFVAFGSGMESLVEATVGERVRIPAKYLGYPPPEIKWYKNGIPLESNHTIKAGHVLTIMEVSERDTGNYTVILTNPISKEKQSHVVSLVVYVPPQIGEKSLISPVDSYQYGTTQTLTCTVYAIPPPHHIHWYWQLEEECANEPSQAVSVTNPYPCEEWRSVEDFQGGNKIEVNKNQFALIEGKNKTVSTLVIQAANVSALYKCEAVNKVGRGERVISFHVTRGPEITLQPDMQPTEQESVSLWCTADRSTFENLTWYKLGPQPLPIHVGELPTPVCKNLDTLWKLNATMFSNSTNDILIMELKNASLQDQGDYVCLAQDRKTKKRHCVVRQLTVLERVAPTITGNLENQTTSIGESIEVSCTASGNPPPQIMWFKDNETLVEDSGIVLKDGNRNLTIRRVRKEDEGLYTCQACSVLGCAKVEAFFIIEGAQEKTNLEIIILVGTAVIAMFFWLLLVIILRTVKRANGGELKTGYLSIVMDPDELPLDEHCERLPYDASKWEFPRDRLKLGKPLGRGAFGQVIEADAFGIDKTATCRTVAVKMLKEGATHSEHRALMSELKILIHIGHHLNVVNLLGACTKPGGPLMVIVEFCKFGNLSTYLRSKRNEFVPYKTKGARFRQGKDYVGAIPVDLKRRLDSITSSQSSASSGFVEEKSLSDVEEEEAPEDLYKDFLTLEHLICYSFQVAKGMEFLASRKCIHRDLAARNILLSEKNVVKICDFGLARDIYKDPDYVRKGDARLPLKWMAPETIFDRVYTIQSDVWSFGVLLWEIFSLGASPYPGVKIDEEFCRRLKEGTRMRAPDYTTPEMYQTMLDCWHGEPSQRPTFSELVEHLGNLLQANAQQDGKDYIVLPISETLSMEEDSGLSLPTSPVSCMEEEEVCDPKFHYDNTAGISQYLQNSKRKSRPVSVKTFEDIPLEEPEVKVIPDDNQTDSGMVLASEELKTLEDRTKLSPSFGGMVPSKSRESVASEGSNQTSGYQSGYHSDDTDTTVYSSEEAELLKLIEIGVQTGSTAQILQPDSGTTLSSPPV
Observed Property: pKi

1. VEGF189a (recombinant human, R&D Systems) (ligand) APMAEGGGQNHHEVVKFMDVYQRSYCHPIETLVDIFQEYPDEIEYIFKPSCVPLMRCGGCCNDEGLECVPTEESNITMQIMRIKPHQGQHIGEMSFLQHNKCECRPKKDRARQEKKSVRGKGKGQKRKRKKSRYKSWSVPCGPCSERRKHLFVQDPQTCKCSCKNTDSRCKARQLELNERTCRCDKPRR
8.99
2. VEGF145a (recombinant human, R&D Systems) (ligand) APMAEGGGQNHHEVVKFMDVYQRSYCHPIETLVDIFQEYPDEIEYIFKPSCVPLMRCGGCCNDEGLECVPTEESNITMQIMRIKPHQGQHIGEMSFLQHNKCECRPKKDRARQEKKSVRGKGKGQKRKRKKSRYKSWSVCDKPRR
8.74
3. VEGF121a (recombinant human, R&D Systems) (ligand) APMAEGGGQNHHEVVKFMDVYQRSYCHPIETLVDIFQEYPDEIEYIFKPSCVPLMRCGGCCNDEGLECVPTEESNITMQIMRIKPHQGQHIGEMSFLQHNKCECRPKKDRARQEKCDKPRR
9.47
4. VEGF165b (recombinant human, R&D Systems) (ligand) APMAEGGGQNHHEVVKFMDVYQRSYCHPIETLVDIFQEYPDEIEYIFKPSCVPLMRCGGCCNDEGLECVPTEESNITMQIMRIKPHQGQHIGEMSFLQHNKCECRPKKDRARQENPCGPCSERRKHLFVQDPQTCKCSCKNTDSRCKARQLELNERTCRSLTRKD
9.41
